- procedure-details: NCI Yeast Anticancer Drug Screen. Data for the sgs1 mgt1 strain (AID 161);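 further: 0% = growth of cultures given vehicle only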
- particulars: S. cerevisiae sgs1 mgt1 strain, at 50.0 µM, active compounds read high
This is part of a sample that, as a whole, favours compounds with a hit. Of some 79,000 tested, about 15% had one in any assay.
As shown below, each of these compounds has a reported growth inhibition value.
Return type: number; implicit unit %.

For orientation, consider the following solved cases.
compound: O=P(C(=S)Nc1c(Cl)cccc1Cl)(c1ccccc1)c1ccccc1
measurement-units: %
growth inhibition: 88.3

compound: S=C(NCc1ccccn1)N/N=C/c1ccccn1
measurement-units: %
growth inhibition: 90.1

compound: O=C(O)CNC(c1ccccc1)(c1ccccc1)c1ccccc1
measurement-units: %
growth inhibition: 90.8

compound: CO[C@@]1([C@@H](Cl)c2ccccc2)C(=O)N(C)/C(=C\c2ccccc2)C(=O)N1C
measurement-units: %
growth inhibition: 43.6

compound: O=c1c2ccccc2nc(-c2cccc([N+](=O)[O-])c2)n1O
measurement-units: %
growth inhibition: 98

Query: # lookup: growth inhibition of CC1=CN2C(c3ccccc3)=NON(c3ccc(C)cn3)C2C=C1 (centres undefined)
Reply: 18

Query: # lookup: growth inhibition of `CCCN=Cc1cc(Cc2ccc(O)c(C=NCCC)c2)ccc1O`
Reply: 92.2

Query: # lookup: growth inhibition of `OB(O)c1ccccc1C#Cc1ccccc1`
Reply: 76.8

Query: # lookup: growth inhibition of `COc1ccc2nc3cccc([N+](=O)[O-])c3c(NCCNCCN(C)C)c2c1`
Reply: 68.2

====

- procedure-details: NCI Yeast Anticancer Drug Screen. Data for the bub3 strain (AID 167)
- particulars: S. cerevisiae bub3 mutant strain, at 50.0 µM, active compounds read high
Compounds without any hit were thinned out: in the full panel of roughly 79,000, 15% have a hit.
attribute-measured: growth inhibition (%)
Return type: number; implicit unit %.

Query: # lookup: growth inhibition of `O=C(NOC(=O)c1ccc([N+](=O)[O-])cc1)c1ccc(Cl)cc1`
Reply: 90

Query: # lookup: growth inhibition of `CCOP(=O)(OCC)/C(C#N)=C\c1cccc2ccccc12`
Reply: 89.2

====

As shown below, each of these compounds has a reported growth inhibition value.
- procedure-details: NCI Yeast Anticancer Drug Screen. Data for the CLN2oe strain (AID 163);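 further: 0% = growth of vehicle-only control cultures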
- particulars: S. cerevisiae CLN2oe strain, at 3.7 µM, active compounds read high
About 79,000 compounds went through this panel and 15% of them were active in at least one assay; those are over-represented in the sample as a whole. Residues, ends and D or L forms follow the SMILES beside them. *: point of attachment. Fmoc = O=C(OCC1c2ccccc2-c2ccccc21)*; Boc = CC(C)(C)OC(=O)*
Return type: number; implicit unit %.

For orientation, consider the following solved cases.
compound: OC(CC(O)(C(F)(F)F)C(F)(F)F)c1ccc(C(O)CC(O)(C(F)(F)F)C(F)(F)F)cc1 (stereo unspecified)
value-measured: 68

compound: CCCNCC(=O)O[C@]1(CC)C(=O)OCc2c1cc1n(c2=O)Cc2cc3ccccc3nc2-1
value-measured: 34

compound: O=c1[nH]c2c([N+](=O)[O-])cccc2c2ccccc12
value-measured: -15

Query: # lookup: growth inhibition of CC(C)(C)OC(=O)NCCCCC(NC(=O)C(Cc1c[nH]c2ccccc12)NC(=O)OCC1c2ccccc2-c2ccccc21)C(=O)O (stereo unspecified) (Fmoc-Trp-Lys(Boc)-OH; configuration not given here)
Reply: 1

Query: # lookup: growth inhibition of `S=C1C(=Nc2ccccc2)N(c2ccccc2)/C(=N\c2ccccn2)N1c1ccccc1`
Reply: -11

Query: # lookup: growth inhibition of CC(C)[Si]1(C(C)C)OCC2OC(n3cnc4c(N)ncnc43)C(N)C2O[Si](C(C)C)(C(C)C)O1 (stereo unspecified)
Reply: 2

Query: # lookup: growth inhibition of C/C(=N\OCC(O)CNCCSCc1ccccc1)c1ccccc1Cl (stereo unspecified)
Reply: 12

Query: # lookup: growth inhibition of `CNC(=O)OCc1c2ccncc2c(C)c2c1[nH]c1ccccc12`
Reply: 19

Query: # lookup: growth inhibition of `ClCCCOc1c(Cl)cc(Cl)cc1Cl`
Reply: 0

Query: # lookup: growth inhibition of O=CC1(F)CC1(c1ccccc1)c1ccccc1 (stereo unspecified)
Reply: 1

Query: # lookup: growth inhibition of `CN(C)CCNC(=Cc1ccc2ccccc2[n+]1C)NCCN(C)C`
Reply: 0

Query: # lookup: growth inhibition of `CC(=O)O/N=C1C=C/C(=C(/C#N)c2ccccc2)C=C/1C`
Reply: 0

Query: # lookup: growth inhibition of NC(CS)C(=O)NCCNc1ccc(NCCNC(=O)C(N)CS)c2c1C(=O)c1c(O)ccc(O)c1C2=O (stereo unspecified)
Reply: 4

Query: # lookup: growth inhibition of `O=C1C(=O)N(c2ccccc2)[C@@]2(c3ccccc3)C(=Nc3ccccc3)OC(c3ccccc3)=C12`
Reply: 0

Query: # lookup: growth inhibition of O=C1CCC(Cc2ccccc2)CN1 (stereo unspecified)
Reply: -5

Query: # lookup: growth inhibition of `CC1=C(C)C(=O)C2=C(OCCO2)C1=O`
Reply: -4

Query: # lookup: growth inhibition of `O=S(=O)(NNc1ccccc1)c1ccccc1`
Reply: -1

Query: # lookup: growth inhibition of `O=C(NO)c1coc2ccccc2c1=O`
Reply: 2

Query: # lookup: growth inhibition of `O=C1c2cccc3cccc(c23)C(=O)N1CCNCCN1C(=O)c2cccc3cccc(c23)C1=O`
Reply: -2

Query: # lookup: growth inhibition of CC1(c2ccccc2)O[C@@H]2C[C@H]3[C@@H]4CCC5=CC(=O)C=C[C@]5(C)[C@@]4(F)[C@@H](O)C[C@]3(C)[C@]2(C(=O)CO)O1 (stereo partly specified)
Reply: -11

Query: # lookup: growth inhibition of `CC(C)OC(=O)NNc1cccc(Cl)c1`
Reply: -6

====

As shown below, each of these molecules has a reported growth inhibition value.
- procedure-details: NCI Yeast Anticancer Drug Screen. Data for the bub3 strain (AID 167)
- particulars: S. cerevisiae bub3 mutant strain, at 100.0 µM, active compounds read high
Compounds without any hit were thinned out: in the full panel of roughly 79,000, 15% have a hit. Calls of active or inactive are those of the source. Cut-off read from the data, not from the text of the source: active = growth inhibition above about 70%; inactive = the rest.

Query: # lookup: growth inhibition of `CCCCCCCC/C=C\CCCCCCCCN`
Reply: 96% (active)

Query: # lookup: growth inhibition of `O=C1/C(=C/c2ccc(Cl)c(Cl)c2)CNC/C1=C\c1ccc(Cl)c(Cl)c1`
Reply: 92% (active)

Query: # lookup: growth inhibition of C/C1=C/C2OC(=O)C3(C)C2C(CC2(C)OC1=CC2=O)OC3(O)C(C)C (stereo not drawn)
Reply: -28% (inactive)

====

- procedure-details: NCI Yeast Anticancer Drug Screen. Data for the mec2-1 strain (AID 157)
- particulars: S. cerevisiae mec2-1 strain, at 100.0 µM
About 79,000 compounds went through this panel and 15% of them were active in at least one assay; those are over-represented in the sample as a whole. The source made the active and inactive calls. Cut-off read from the data, not from the text of the source: active = growth inhibition above about 70%; inactive = the rest.
A correct response names exactly one class from active, inactive

Recorded results for 3 compounds are shown here.
compound: N#CSCC1COc2ccccc2O1 (centres undefined)
category: active
--
compound: CN(C)N=Nc1ccc(N(C)C)cc1
category: inactive
--
compound: CCCCCCCCSC1=C(Cl)C(=O)C(OC)=C(OC)C1=O
category: active

Now consider the entry below.
Query: Answer briefly: the call reported for Cc1cccc2c1C1c3c(C)cccc3C(CC(=O)O)CC1CC2 (centres undefined) in this assay.
Reply: active

====

- procedure-details: NCI Yeast Anticancer Drug Screen. Data for the sgs1 strain (AID 173);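 further: 0% = growth of vehicle-only control cultures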
- particulars: S. cerevisiae sgs1 mutant, at 100.0 µM
This is part of a sample that, as a whole, favours compounds with a hit. Of some 79,000 tested, about 15% had one in any assay. The source made the active and inactive calls. No stated cut-off is given here; in the data, active means growth inhibition above about 70%; inactive means the rest.
A correct response names exactly one class from True (active), False (inactive)

Recorded results for 5 compounds are shown here.
compound: CC1=COC2=C(C)C(=O)C(=O)c3c(C)ccc1c32
category: True
--
compound: Oc1ccc(N=Nc2ccc(Cl)cc2)cc1
category: True
--
compound: COc1cc(NCCCCNCC(C)(C)C)c2ncccc2c1
category: False
--
compound: O=C1C(CCSc2ccccc2)C(=O)N(c2ccccc2)C1c1ccccc1 (stereo unspecified)
category: True
--
compound: COc1ccc2nc3cccc([N+](=O)[O-])c3c(NCCNCCN(C)C)c2c1
category: False

Query: Answer briefly: the call reported for `COc1ccccc1NC(=O)c1ccc(Cl)cc1` in this assay.
Reply: False

Query: Answer briefly: the call reported for `CCN(CC)C(=S)N/N=C(\C)c1ccccc1O` in this assay.
Reply: True

Query: Answer briefly: the call reported for `NC(=O)NC1C(c2ccccc2)=C1c1ccccc1` in this assay.
Reply: True

Query: Answer briefly: the call reported for CCC(OC(C)=O)C1CC(C(C)C)CCC1C (stereo unspecified) in this assay.
Reply: True

====

- procedure-details: NCI Yeast Anticancer Drug Screen. Data for the wt2 strain (AID 169);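 further: 0% = growth of vehicle-treated yeast cultures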
- particulars: S. cerevisiae wt2 strain growth inhibition; at 100.0 µM
Compounds without any hit were thinned out: in the full panel of roughly 79,000, 15% have a hit. Calls of active or inactive are those of the source. No stated cut-off is given here; in the data, active means growth inhibition above about 70%; inactive means the rest.
A correct response names exactly one class from t (active), f (inactive)

Recorded results for 8 compounds are shown here.
compound: COc1ccc2nc(CCc3ccccc3)ccc2c1
category: t
//
compound: O=NC1c2cccc3cccc(c23)C1N=O (configuration not stated)
category: t
//
compound: CCCCCCCCCCCCCCCCCCN(C)C(COC)COP(=O)([O-])OCC[N+](C)(C)C (configuration not stated)
category: t
//
compound: O=C1C(CCSc2ccccc2)C(=O)N(c2ccccc2)C1c1ccccc1 (configuration not stated)
category: t
//
compound: CC1C(c2ccccc2)SC(=N)N1C (configuration not stated)
category: f
//
compound: Cc1c(C(=O)/C=C/c2ccccc2[N+](=O)[O-])[n+](=O)c2ccccc2n1[O-]
category: t
//
compound: CC(/C=C/c1ccc([N+](=O)[O-])o1)=N/N1CC(CN2CCOCC2)OC1=O (configuration not stated)
category: t
//
compound: C=C(C(=O)OC)N1C(=O)CC(C)C1=O (configuration not stated)
category: t

Query: Answer briefly: the call reported for `CC(C)S(=O)(=O)/C=C\S(=O)(=O)C(C)C` in this assay.
Reply: t

Query: Answer briefly: the call reported for OC(Cc1cccc2ccccc12)CN1CCC(c2ccccc2)CC1 (configuration not stated) in this assay.
Reply: t

Query: Answer briefly: the call reported for `O=S(=O)(NNc1ccccc1)c1ccccc1` in this assay.
Reply: f

Query: Answer briefly: the call reported for `CC1=CC(C)(C)SC(SSSC2=NC(C)=CC(C)(C)S2)=N1` in this assay.
Reply: t
